Target: Peroxisome proliferator-activated receptor gamma (Homo sapiens, UniProt P37231); further: assay procedure not described here
Sequence (P37231 whole entry): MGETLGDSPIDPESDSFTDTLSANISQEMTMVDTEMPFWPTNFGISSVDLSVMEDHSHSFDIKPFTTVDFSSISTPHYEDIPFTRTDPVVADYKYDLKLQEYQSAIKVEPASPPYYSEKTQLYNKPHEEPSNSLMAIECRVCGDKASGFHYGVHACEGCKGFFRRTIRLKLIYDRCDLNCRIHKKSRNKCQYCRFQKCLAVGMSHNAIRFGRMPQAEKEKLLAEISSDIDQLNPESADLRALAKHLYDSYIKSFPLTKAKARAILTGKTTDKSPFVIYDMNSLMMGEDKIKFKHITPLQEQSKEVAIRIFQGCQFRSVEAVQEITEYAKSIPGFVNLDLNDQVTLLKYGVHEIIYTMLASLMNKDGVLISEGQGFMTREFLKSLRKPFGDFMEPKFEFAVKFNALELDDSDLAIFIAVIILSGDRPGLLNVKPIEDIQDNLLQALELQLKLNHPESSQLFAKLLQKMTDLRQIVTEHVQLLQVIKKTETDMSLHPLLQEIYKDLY
Format: functional
measurement-label: AC50

compound	measurement-label	result
CC(C)C[C@H](CN)CC(=O)O	AC50	> 30 µM
CO[C@@]1(NC(=O)Cc2cccs2)C(=O)N2C(C(=O)O)=C(COC(N)=O)CS[C@@H]21	AC50	11 µM
COc1cccc2c1C(=O)c1c(O)c3c(c(O)c1C2=O)C[C@@](O)(C(C)=O)C[C@@H]3O[C@H]1C[C@H](N)[C@H](O)[C@H](C)O1	AC50	> 10 µM
C=CC1=C(C(=O)O)N2C(=O)[C@@H](NC(=O)/C(=N\OCC(=O)O)c3csc(N)n3)[C@H]2SC1	AC50	> 30 µM
C#Cc1cccc(Nc2ncnc3cc(OCCOC)c(OCCOC)cc23)c1	AC50	> 30 µM
Cc1ccc(NC(=O)C2(c3ccc4c(c3)OC(F)(F)O4)CC2)nc1-c1cccc(C(=O)O)c1	AC50	> 30 µM
CCCCC1(CC)C(=O)NC(=O)NC1=O	AC50	> 30 µM
C[C@H]1Oc2cc(cnc2N)-c2c(nn(C)c2C#N)CN(C)C(=O)c2ccc(F)cc21	AC50	> 30 µM
CC[C@H]1OC(=O)[C@H](C)[C@@H](O[C@H]2C[C@@](C)(OC)[C@@H](O)[C@H](C)O2)[C@H](C)[C@@H](O[C@@H]2O[C@H](C)C[C@H](N(C)C)[C@H]2O)[C@](C)(O)C[C@@H](C)/C(=N\OCOCCOC)[C@H](C)[C@@H](O)[C@]1(C)O	AC50	> 30 µM
CCn1cc(C(=O)O)c(=O)c2cc(F)c(N3CCN(C)CC3)cc21	AC50	> 30 µM
CCCNC(C)C(=O)Nc1ccccc1C (stereo not drawn)	AC50	> 30 µM
CCOC(=O)Nc1ccc2c(c1)N(C(=O)CCN1CCOCC1)c1ccccc1S2	AC50	> 30 µM
CC(=O)S[C@@H]1CC2=CC(=O)CC[C@]2(C)[C@H]2CC[C@@]3(C)[C@@H](CC[C@@]34CCC(=O)O4)[C@H]12	AC50	> 30 µM
